Listed compounds paired with reported fold induction at 0.01 µM
# Assayed system: GR (Homo sapiens, UniProt P04150)
# Experiment description: Determination of induction activity, MMTV-Luc reporter in AD293 cells transfected with pRShGR (Table 3, FIG. 14)
# Measurement parameters: AD293, read-out: Steroid Fold Induction
I'd appreciate a reply containing only the number, no unit.

Compound: CON(C)C(=O)[C@@]1(OC(=O)c2ccco2)[C@H](C)CC2C3C=C(F)C4=Cc5c(cnn5-c5ccccc5)C[C@]4(C)[C@@]3(F)C(O)C[C@@]21C (stereo partly shown) [VSGC12, reference compound]
fold induction at 0.01 µM: 28.4
//
Compound: CC(C)OC(=O)[C@@]1(OC(=O)c2ccco2)[C@H](C)CC2C3C=C(F)C4=Cc5c(cnn5-c5ccccc5)C[C@]4(C)[C@@]3(F)C(O)C[C@@]21C (stereo partly shown)
fold induction at 0.01 µM: 29.6
//
Compound: C[C@@H]1CC2C3C=C(F)C4=Cc5c(cnn5-c5ccccc5)C[C@]4(C)[C@@]3(F)C(O)C[C@]2(C)[C@@]1(OC(=O)c1ccco1)C(=O)O (stereo partly shown)
fold induction at 0.01 µM: 2.42
//
Compound: C[C@@H]1CC2C3C=C(F)C4=Cc5c(cnn5-c5ccccc5)C[C@]4(C)[C@@]3(F)C(O)C[C@]2(C)[C@@]1(OC(=O)c1ccco1)C(=O)OCF (stereo partly shown)
fold induction at 0.01 µM: 27

Output fold induction at 0.01 µM of C[C@@H]1CC2C3C=C(F)C4=Cc5c(cnn5-c5ccccc5)C[C@]4(C)[C@@]3(F)C(O)C[C@]2(C)[C@@]1(OC(=O)c1ccco1)C(=O)SCF (stereo partly shown)
29.3

Retrieve fold induction at 0.01 µM measured for CCOC(=O)[C@@]1(OC(=O)c2ccco2)[C@H](C)CC2C3C=C(F)C4=Cc5c(cnn5-c5ccccc5)C[C@]4(C)[C@@]3(F)C(O)C[C@@]21C (stereo partly shown) and print it.
26.9

Dear colleague, please send me the reported fold induction at 0.01 µM for C[C@@H]1CC2C3C=C(F)C4=Cc5c(cnn5-c5ccccc5)C[C@]4(C)[C@@]3(F)C(O)C[C@]2(C)[C@@]1(OC(=O)c1ccco1)C(=O)OC(C)(C)C (stereo partly shown) when you can.
28.7

* * *

# Assayed system: GR (Homo sapiens, UniProt P04150)
# Experiment description: Determination of induction activity, MMTV-Luc reporter in AD293 cells transfected with pRShGR (Table 3, FIG. 14)
# Measurement parameters: AD293, 16 h, read-out: % to Dex induction
Cut-off 90% on activation at 1 µM, inclusive. At or above means yes (1); below means no (0).

Molecule: C[C@@H]1CC2C3C=C(F)C4=Cc5c(cnn5-c5ccccc5)C[C@]4(C)[C@@]3(F)C(O)C[C@]2(C)[C@@]1(OC(=O)c1ccco1)C(=O)O (stereo partly shown) [Compound 1]
Assayed system: GR (Homo sapiens, UniProt P04150)
Class name: no (0)

Does activation at 1 µM meet or surpass 90% for CC(C)OC(=O)[C@@]1(OC(=O)c2ccco2)[C@H](C)CC2C3C=C(F)C4=Cc5c(cnn5-c5ccccc5)C[C@]4(C)[C@@]3(F)C(O)C[C@@]21C (stereo partly shown) [Compound 3] ?
no (0)

API: above_or_equal(metric=activation at 1 µM, cutoff=90%) for item CON(C)C(=O)[C@@]1(OC(=O)c2ccco2)[C@H](C)CC2C3C=C(F)C4=Cc5c(cnn5-c5ccccc5)C[C@]4(C)[C@@]3(F)C(O)C[C@@]21C (stereo partly shown) [VSGC12, reference compound]
yes (1)

Confirm if activation at 1 µM reported for the molecule C[C@@H]1CC2C3C=C(F)C4=Cc5c(cnn5-c5ccccc5)C[C@]4(C)[C@@]3(F)C(O)C[C@]2(C)[C@@]1(OC(=O)c1ccco1)C(=O)OC(C)(C)C (stereo partly shown) [Compound 6] is 90% or above.
yes (1)

Threshold query (activation at 1 µM >= 90%) on C[C@@H]1CC2C3C=C(F)C4=Cc5c(cnn5-c5ccccc5)C[C@]4(C)[C@@]3(F)C(O)C[C@]2(C)[C@@]1(OC(=O)c1ccco1)C(=O)SCF (stereo partly shown) [Compound 5]
no (0)

For this molecule, is measured activation at 1 µM 90% or higher? C[C@@H]1CC2C3C=C(F)C4=Cc5c(cnn5-c5ccccc5)C[C@]4(C)[C@@]3(F)C(O)C[C@]2(C)[C@@]1(OC(=O)c1ccco1)C(=O)OCF (stereo partly shown) [Compound 4]
no (0)

* * *

# Assayed system: GR (Homo sapiens)
# Sequence (P04150 1-777): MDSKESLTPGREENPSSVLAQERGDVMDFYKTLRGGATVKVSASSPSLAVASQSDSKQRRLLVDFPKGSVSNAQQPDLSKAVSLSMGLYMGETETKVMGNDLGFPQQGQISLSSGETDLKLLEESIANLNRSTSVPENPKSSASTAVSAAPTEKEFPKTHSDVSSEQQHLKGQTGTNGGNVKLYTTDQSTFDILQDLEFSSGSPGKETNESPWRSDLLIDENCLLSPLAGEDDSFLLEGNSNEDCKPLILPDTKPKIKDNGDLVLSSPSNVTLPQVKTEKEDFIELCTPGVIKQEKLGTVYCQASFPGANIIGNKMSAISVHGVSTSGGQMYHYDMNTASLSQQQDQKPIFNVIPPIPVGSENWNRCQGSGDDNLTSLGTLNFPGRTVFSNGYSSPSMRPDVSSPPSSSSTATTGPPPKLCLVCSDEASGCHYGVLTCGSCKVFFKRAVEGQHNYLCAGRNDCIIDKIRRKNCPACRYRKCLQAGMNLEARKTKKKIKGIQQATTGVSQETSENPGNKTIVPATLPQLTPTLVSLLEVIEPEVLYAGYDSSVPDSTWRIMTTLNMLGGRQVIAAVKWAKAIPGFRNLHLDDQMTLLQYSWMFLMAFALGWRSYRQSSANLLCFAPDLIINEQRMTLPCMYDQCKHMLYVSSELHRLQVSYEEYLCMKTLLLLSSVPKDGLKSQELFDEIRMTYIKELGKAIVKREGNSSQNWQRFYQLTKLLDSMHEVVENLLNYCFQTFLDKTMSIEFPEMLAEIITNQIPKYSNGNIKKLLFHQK
# Experiment description: Determination of induction activity, MMTV-Luc reporter in AD293 cells transfected with pRShGR (Table 3, FIG. 14)
# Measurement parameters: 1000 nM
Overview of recorded Mean (RLU/Renilla) for various molecules
Give only the figure.

The examples below pair each entry with its known result.
Molecule: C[C@@H]1CC2C3C=C(F)C4=Cc5c(cnn5-c5ccccc5)C[C@]4(C)[C@@]3(F)C(O)C[C@]2(C)[C@@]1(OC(=O)c1ccco1)C(=O)O (stereo partly shown)
Assayed system: GR (Homo sapiens)
Mean (RLU/Renilla): 0.806
//
Molecule: CC(C)OC(=O)[C@@]1(OC(=O)c2ccco2)[C@H](C)CC2C3C=C(F)C4=Cc5c(cnn5-c5ccccc5)C[C@]4(C)[C@@]3(F)C(O)C[C@@]21C (stereo partly shown)
Assayed system: GR (Homo sapiens)
Mean (RLU/Renilla): 1.219
//
Molecule: C[C@@H]1CC2C3C=C(F)C4=Cc5c(cnn5-c5ccccc5)C[C@]4(C)[C@@]3(F)C(O)C[C@]2(C)[C@@]1(OC(=O)c1ccco1)C(=O)OCF (stereo partly shown)
Assayed system: GR (Homo sapiens)
Mean (RLU/Renilla): 1.153

Next molecule, please.
Report value: Mean (RLU/Renilla), system: GR (Homo sapiens), molecule: CON(C)C(=O)[C@@]1(OC(=O)c2ccco2)[C@H](C)CC2C3C=C(F)C4=Cc5c(cnn5-c5ccccc5)C[C@]4(C)[C@@]3(F)C(O)C[C@@]21C (stereo partly shown) [VSGC12, reference compound]
1.682

* * *

# Assayed system: GR (Homo sapiens, UniProt P04150)
# Sequence (P04150 1-777): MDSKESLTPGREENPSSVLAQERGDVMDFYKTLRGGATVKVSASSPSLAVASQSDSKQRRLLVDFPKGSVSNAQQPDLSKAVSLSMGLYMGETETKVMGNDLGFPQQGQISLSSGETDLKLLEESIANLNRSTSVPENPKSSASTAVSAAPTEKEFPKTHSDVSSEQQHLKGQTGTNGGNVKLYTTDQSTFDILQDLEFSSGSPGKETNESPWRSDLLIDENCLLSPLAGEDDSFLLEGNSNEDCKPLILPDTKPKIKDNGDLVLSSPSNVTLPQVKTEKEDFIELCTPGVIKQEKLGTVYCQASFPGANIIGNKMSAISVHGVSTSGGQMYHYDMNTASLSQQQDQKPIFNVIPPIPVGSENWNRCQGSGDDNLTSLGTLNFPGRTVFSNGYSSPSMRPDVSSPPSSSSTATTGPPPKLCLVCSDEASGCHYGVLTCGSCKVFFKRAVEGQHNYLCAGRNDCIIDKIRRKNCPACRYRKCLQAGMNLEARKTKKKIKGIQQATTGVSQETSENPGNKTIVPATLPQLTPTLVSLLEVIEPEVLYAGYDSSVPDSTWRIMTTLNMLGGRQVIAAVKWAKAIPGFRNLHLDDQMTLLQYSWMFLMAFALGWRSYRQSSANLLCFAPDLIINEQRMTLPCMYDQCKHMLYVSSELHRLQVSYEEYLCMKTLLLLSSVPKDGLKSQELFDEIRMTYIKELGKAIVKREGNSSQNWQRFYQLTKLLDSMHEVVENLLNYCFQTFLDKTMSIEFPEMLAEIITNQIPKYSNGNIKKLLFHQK
# Experiment description: Determination of induction activity, MMTV-Luc reporter in AD293 cells transfected with pRShGR (Table 3, FIG. 14)
# Measurement parameters: 10 nM
Listing of recorded Mean (RLU/Renilla) by entry.
Response field accepts a number only; no unit should be typed.

Reference set (5 entries):
Molecule: C[C@@H]1CC2C3C=C(F)C4=Cc5c(cnn5-c5ccccc5)C[C@]4(C)[C@@]3(F)C(O)C[C@]2(C)[C@@]1(OC(=O)c1ccco1)C(=O)OCF (stereo partly shown)
Assayed system: GR (Homo sapiens, UniProt P04150)
Mean (RLU/Renilla): 1.332
--
Molecule: CON(C)C(=O)[C@@]1(OC(=O)c2ccco2)[C@H](C)CC2C3C=C(F)C4=Cc5c(cnn5-c5ccccc5)C[C@]4(C)[C@@]3(F)C(O)C[C@@]21C (stereo partly shown) [VSGC12, reference compound]
Assayed system: GR (Homo sapiens, UniProt P04150)
Mean (RLU/Renilla): 1.402
--
Molecule: CCOC(=O)[C@@]1(OC(=O)c2ccco2)[C@H](C)CC2C3C=C(F)C4=Cc5c(cnn5-c5ccccc5)C[C@]4(C)[C@@]3(F)C(O)C[C@@]21C (stereo partly shown)
Assayed system: GR (Homo sapiens, UniProt P04150)
Mean (RLU/Renilla): 1.328
--
Molecule: C[C@@H]1CC2C3C=C(F)C4=Cc5c(cnn5-c5ccccc5)C[C@]4(C)[C@@]3(F)C(O)C[C@]2(C)[C@@]1(OC(=O)c1ccco1)C(=O)SCF (stereo partly shown)
Assayed system: GR (Homo sapiens, UniProt P04150)
Mean (RLU/Renilla): 1.444
--
Molecule: C[C@@H]1CC2C3C=C(F)C4=Cc5c(cnn5-c5ccccc5)C[C@]4(C)[C@@]3(F)C(O)C[C@]2(C)[C@@]1(OC(=O)c1ccco1)C(=O)O (stereo partly shown)
Assayed system: GR (Homo sapiens, UniProt P04150)
Mean (RLU/Renilla): 0.119

Give the reported value of Mean (RLU/Renilla) for this record: C[C@@H]1CC2C3C=C(F)C4=Cc5c(cnn5-c5ccccc5)C[C@]4(C)[C@@]3(F)C(O)C[C@]2(C)[C@@]1(OC(=O)c1ccco1)C(=O)OC(C)(C)C (stereo partly shown)
1.417

Recall and state the measured Mean (RLU/Renilla) for CC(C)OC(=O)[C@@]1(OC(=O)c2ccco2)[C@H](C)CC2C3C=C(F)C4=Cc5c(cnn5-c5ccccc5)C[C@]4(C)[C@@]3(F)C(O)C[C@@]21C (stereo partly shown) .
1.462
